Assignment: determine reported pIC50 for the given compounds.
- testedOn: human Kir2.1 channels (Homo sapiens, UniProt P63252)
- Sequence (P63252 1-427): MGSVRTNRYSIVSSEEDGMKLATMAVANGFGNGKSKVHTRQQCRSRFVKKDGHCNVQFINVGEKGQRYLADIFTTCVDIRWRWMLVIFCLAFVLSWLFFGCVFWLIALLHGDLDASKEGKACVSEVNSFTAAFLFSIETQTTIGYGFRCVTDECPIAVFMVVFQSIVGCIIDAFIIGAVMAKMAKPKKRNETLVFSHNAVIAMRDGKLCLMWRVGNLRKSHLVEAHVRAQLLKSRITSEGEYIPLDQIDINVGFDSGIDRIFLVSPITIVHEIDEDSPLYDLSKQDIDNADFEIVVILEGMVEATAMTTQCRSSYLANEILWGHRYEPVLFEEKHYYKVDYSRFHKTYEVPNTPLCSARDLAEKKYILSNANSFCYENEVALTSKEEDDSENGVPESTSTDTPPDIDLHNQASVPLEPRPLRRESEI
- assayExplanation: cell-based
Units for pIC50: none; it is -log10 of a concentration expressed in mol/L.

// lookup pIC50 for "CN(C)CCCN1c2ccccc2Sc2ccc(Cl)cc21"
5.42

Next record, please: CCN(CC)CCCC(C)Nc1ccnc2cc(Cl)ccc12 (centres unmarked)
5.72

Next record, please: "COc1ccc(CNCc2cccc3ccccc23)cc1"
5.92

Next record, please: COc1ccc(CCCOC(Cn2ccnc2)c2ccc(OC)cc2)cc1 (centres unmarked)
5.33

Next record, please: "COc1ccc(C2CCN(CC[C@H]3CCOc4ccccc43)CC2)cc1OC"
5.08

###

- testedOn: human Kir2.1 channels (Homo sapiens)
- assayExplanation: cell-based
- Format: cell-based
quantity: Hill slope nH (95% CI)

// lookup Hill slope nH (95% CI) for CCN(CC)CCCC(C)Nc1ccnc2cc(Cl)ccc12 (centres unmarked)
0.80 (0.76–0.83)

Next record, please: "CN(C)CCCN1c2ccccc2Sc2ccc(Cl)cc21"
1.7 (1.4–2.1)

Next record, please: "COc1ccc(C2CCN(CC[C@H]3CCOc4ccccc43)CC2)cc1OC"
0.98 (0.88–1.1)

Next record, please: "COc1ccc(CNCc2cccc3ccccc23)cc1"
2.6 (2.2–3.1)

Next record, please: COc1ccc(CCCOC(Cn2ccnc2)c2ccc(OC)cc2)cc1 (centres unmarked)
1.3 (1.1–1.5)
